biological target: LNX1_2, Q8TBB1; assay: holdup assay; parameters: key: below the threshold = too weak to quantify, mostly under pKd 3.1 to 4; conditions: plain residues with an end cap or a label only (N-terminal biotin on a linker: ado-ado)
Sequence (Q8TBB1 371-470): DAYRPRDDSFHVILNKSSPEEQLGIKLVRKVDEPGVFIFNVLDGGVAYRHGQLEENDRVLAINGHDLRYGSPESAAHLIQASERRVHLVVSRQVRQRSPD

| binder | pKd |
| --- | --- |
| AKADAQESRL [PLCB2, Q00722] | below the threshold |
| DSEEELPTRL [GRK6, P43250] | below the threshold |
| YAEKRMLTEV [KCNA6, P17658] | 3.51 |
| LPPPESESKV [KCNJ9, Q92806] | below the threshold |
| GQNMTVSVVI [PRLHR, P49683] | 3.54 |
| TFSRRPKTRV [CD226, Q15762] | below the threshold |
| QQGLLPHSSC [TYRO3, Q06418] | below the threshold |
| DYSNLRETDI [ADRA1D, P25100] | below the threshold |
| IKLETKKTKL [SLC15A2, Q16348] | below the threshold |
| PLATCDETSI [SEMA4F, O95754] | below the threshold |
| HLSTRQGTCV [ATRNL1, Q5VV63] | 3.71 |
| HDDYFYHDEL [RCN2, Q14257] | below the threshold |
| NKSEPFLTWL [WWTR1, Q9GZV5] | below the threshold |
| STYCDYTIEI [FAM71C, Q8NEG0] | 4.35 |
| GDSSRKEYFI [GYPC, P04921] | below the threshold |
| IGHEDLETAV [DGKI, O75912] | below the threshold |
| EKPIDSETKM [SLC1A3, P43003] | below the threshold |
| VCMGDHWFDV [PRKN, O60260] | 4.07 |
| DLLGGGSDSI [TNRC6B, Q9UPQ9] | below the threshold |
| PLPPEEESWV [GAS2L2, Q8NHY3] | 3.94 |
| MQILSKPEFI [NPSR1, Q6W5P4] | below the threshold |
| NISARRFTLC [FAM167B, Q9BTA0] | 4.62 |
| LVEEEEPMNL [HDAC7, Q8WUI4] | below the threshold |
| QRYPGNQTTC [CCL24, O00175] | 3.49 |
| LLQEEWETVM [PTH1R, Q03431] | below the threshold |
| EPAKETTTNV [SLC2A3, P11169] | below the threshold |
| EAVTVESTSL [SLC22A11, Q9NSA0] | below the threshold |
| GSQSQVETEA [FKBP4, Q02790] | below the threshold |
| KIEDVEITLV [FCHSD2, O94868] | 4.55 |
| SQPLLVHDDV [KIT, P10721] | below the threshold |
| KPDKQEEFYA [SDC3, O75056] | below the threshold |
| NSTHNLKDYV [CLDN20, P56880] | below the threshold |
